Data credit: ChEMBL document CHEMBL4270496

# target-of-assay: Epidermal growth factor receptor (Homo sapiens)
# procedure-text: Inhibition of EGFR (unknown origin)
metric: IC50 (nM)
Kindly answer with a numeric value in nM, unit omitted.

Lookup: Entry under review: CC(C)(O)CC(=O)NCCc1ccc2ncnc(Nc3ccc(Oc4cccc(C(F)(F)F)c4)c(Cl)c3)c2c1 . Reported IC50?
Found: 9.8

====

# procedure-text: Antiproliferative activity against human NCI-H1819 cells expressing wild type HER2 incubated for 72 hrs by MTS assay
# Format: functional, cell-based
# measurement-conditions: NCI-H1819, 72 h
metric: pIC50
Scale explanation: pIC50 corresponds to minus log10 of a concentration expressed in moles per litre.

Lookup: Entry under review: COc1cc2ncnc(Nc3ccc(F)c(Cl)c3)c2cc1NC(=O)/C=C/CN1CCCCC1 [DACOMITINIB ANHYDROUS] . Reported pIC50?
Found: 7.54

====

# target-of-assay: Epidermal growth factor receptor (Homo sapiens, UniProt P00533)
# Sequence (P00533 whole entry, the tested form may be a part): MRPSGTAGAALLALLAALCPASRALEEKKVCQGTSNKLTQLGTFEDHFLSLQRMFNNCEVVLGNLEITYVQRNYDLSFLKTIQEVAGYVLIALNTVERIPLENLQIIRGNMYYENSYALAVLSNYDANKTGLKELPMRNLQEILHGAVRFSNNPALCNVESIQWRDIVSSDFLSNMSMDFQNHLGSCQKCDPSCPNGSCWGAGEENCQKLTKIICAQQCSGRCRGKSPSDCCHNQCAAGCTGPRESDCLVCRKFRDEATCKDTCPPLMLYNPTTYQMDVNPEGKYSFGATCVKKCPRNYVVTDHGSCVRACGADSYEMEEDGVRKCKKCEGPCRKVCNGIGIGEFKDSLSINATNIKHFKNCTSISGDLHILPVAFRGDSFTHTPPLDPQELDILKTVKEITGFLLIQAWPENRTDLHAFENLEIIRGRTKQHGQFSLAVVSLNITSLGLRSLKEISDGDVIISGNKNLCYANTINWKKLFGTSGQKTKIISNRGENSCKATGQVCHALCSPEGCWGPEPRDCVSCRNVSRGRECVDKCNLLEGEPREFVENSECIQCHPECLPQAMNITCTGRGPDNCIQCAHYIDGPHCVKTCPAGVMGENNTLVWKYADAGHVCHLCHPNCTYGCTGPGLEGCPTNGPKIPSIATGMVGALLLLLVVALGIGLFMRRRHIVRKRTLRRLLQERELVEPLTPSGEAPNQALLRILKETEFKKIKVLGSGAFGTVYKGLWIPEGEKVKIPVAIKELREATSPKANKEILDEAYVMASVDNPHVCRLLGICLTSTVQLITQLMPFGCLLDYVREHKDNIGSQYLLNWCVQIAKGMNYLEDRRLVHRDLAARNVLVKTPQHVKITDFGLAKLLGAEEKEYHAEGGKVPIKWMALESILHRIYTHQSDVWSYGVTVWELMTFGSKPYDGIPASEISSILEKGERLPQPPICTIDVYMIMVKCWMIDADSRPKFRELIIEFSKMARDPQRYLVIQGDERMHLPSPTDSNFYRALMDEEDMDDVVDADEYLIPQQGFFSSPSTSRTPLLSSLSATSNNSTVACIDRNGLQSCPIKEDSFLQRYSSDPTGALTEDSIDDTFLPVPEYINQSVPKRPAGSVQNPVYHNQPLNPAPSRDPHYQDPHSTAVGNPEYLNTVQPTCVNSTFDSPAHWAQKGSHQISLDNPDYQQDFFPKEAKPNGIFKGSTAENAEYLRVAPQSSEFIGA
# procedure-text: Inhibition of GST-tagged human EGFR catalytic domain expressed in insect cells
metric: pIC50
Scale explanation: pIC50 corresponds to minus log10 of a concentration expressed in moles per litre.

Lookup: Entry under review: C=CC(=O)Nc1cc2c(Nc3ccc(F)c(Cl)c3)ncnc2cc1C#CC(C)(C)N1CCN(C)CC1 [AV-412 FREE BASE] . Reported pIC50?
Found: 8.85
